procedure text: Selectivity index, […] Mycobacterium abscessus CIP104536 smooth variant to CC50 for cytotoxicity against human THP-1 cells
Type: toxicity, cell-based
study conditions: read-out: Selectivity Index
The compounds listed here are annotated with their selectivity ratio.

Here are 2 compounds together with their reported answers.
- smiles structure: "COc1cc(/C=N/NC(=O)c2ccncc2)ccc1OCc1cn(-c2ccnc3cc(Cl)ccc23)nn1"
  quantity measured: "selectivity ratio"
  recorded value: "> 200"
- smiles structure: "O=C(N/N=C/c1ccc(OCc2cn(-c3ccnc4cc(Cl)ccc34)nn2)cc1)c1ccncc1"
  quantity measured: "selectivity ratio"
  recorded value: "> 200"

// below: selectivity ratio requested for another compound
What does the data say about its selectivity ratio? Entry: COc1cc(/C=N/NC(=O)c2ccncc2)ccc1OCc1cn(CCCNc2ccnc3cc(Cl)ccc23)nn1
> 200
